tested on: Hepatotoxicity; test: FDA HLAED, alkaline phosphatase increase; settings: human
PARAMETER MEASURED: Alkaline Phosphatase Increase - Number of Reports

{"COMPOUND": "CCN[C@@H]1C[C@H](N)[C@@H](O[C@H]2OC(CN)=CC[C@H]2N)[C@H](O)[C@H]1O[C@H]1OC[C@](C)(O)[C@H](NC)[C@H]1O", "TGT": "Hepatotoxicity", "RESULT": "< 4"}
{"COMPOUND": "C[C@H](CCC(=O)O)[C@H]1CC[C@H]2[C@@H]3[C@H](O)C[C@@H]4C[C@H](O)CC[C@]4(C)[C@H]3CC[C@]12C", "TGT": "Hepatotoxicity", "RESULT": "< 4"}
{"COMPOUND": "Nc1nc2ccc(OC(F)(F)F)cc2s1", "TGT": "Hepatotoxicity", "RESULT": "< 4"}
{"COMPOUND": "CC(=O)O[C@H]1C[C@@H]2CC[C@@H]3[C@H](CC[C@@]4(C)[C@H]3C[C@H]([N+]3(C)CCCCC3)[C@@H]4OC(C)=O)[C@@]2(C)C[C@@H]1N1CCCCC1.[Br-] [VECURONIUM BROMIDE]", "TGT": "Hepatotoxicity", "RESULT": "< 4"}

====

tested on: Hepatotoxicity; assay: FDA HLAED, lactate dehydrogenase (LDH) increase; details: human
Readings of LDH Increase - Index Value for the listed molecules

{"MOLECULE": "COc1ccc2cc([C@H](C)C(=O)O)ccc2c1", "LDH Increase - Index Value": 0}
{"MOLECULE": "CCc1c2c(nc3ccc(OC(=O)N4CCC(N5CCCCC5)CC4)cc13)-c1cc3c(c(=O)n1C2)COC(=O)[C@]3(O)CC", "LDH Increase - Index Value": 4.1}
{"MOLECULE": "C[C@@H]1C[C@H]2[C@H]3[C@H]([C@@H](O)C[C@]2(C)[C@@]1(O)C(=O)CO)[C@@]1(C)C=CC(=O)C=C1C[C@H]3Cl", "LDH Increase - Index Value": 0}
{"MOLECULE": "CCCN1CCCC[C@H]1C(=O)Nc1c(C)cccc1C", "LDH Increase - Index Value": 0}
{"MOLECULE": "Nc1ccn([C@@H]2O[C@H](CO)[C@@H](O)C2(F)F)c(=O)n1", "LDH Increase - Index Value": 1.4}
{"MOLECULE": "CC(c1cc2ccccc2s1)N(O)C(N)=O (stereo not given)", "LDH Increase - Index Value": 11.9}
{"MOLECULE": "CC[C@H](C)C(=O)O[C@H]1C[C@H](O)C=C2C=C[C@H](C)[C@H](CC[C@@H](O)C[C@@H](O)CC(=O)O)[C@H]21", "LDH Increase - Index Value": 3.1}
{"MOLECULE": "CC(C)NCC(O)COc1ccc(CC(N)=O)cc1 (stereo not given)", "LDH Increase - Index Value": 0.1}
{"MOLECULE": "Fc1ccc([C@@H]2CCNC[C@H]2COc2ccc3c(c2)OCO3)cc1", "LDH Increase - Index Value": 0.4}
{"MOLECULE": "CC1=C(/C=C/C(C)=C/C=C/C(C)=C/C(=O)O)C(C)(C)CCC1", "LDH Increase - Index Value": 1}
{"MOLECULE": "CC(=O)O[C@H]1C(=O)[C@@]2(C)[C@H]([C@H](OC(=O)c3ccccc3)[C@]3(O)C[C@H](OC(=O)[C@H](O)[C@@H](NC(=O)c4ccccc4)c4ccccc4)C(C)=C1C3(C)C)[C@]1(OC(C)=O)CO[C@@H]1C[C@@H]2O", "LDH Increase - Index Value": 2.2}
{"MOLECULE": "FC(F)OC(F)C(F)(F)F (stereo not given)", "LDH Increase - Index Value": 0.5}
{"MOLECULE": "Cn1nnnc1SCC1=C(C(=O)[O-])N2C(=O)[C@@H](NC(=O)[C@H](OC=O)c3ccccc3)[C@H]2SC1.[Na+] [CEFAMANDOLE NAFATE]", "LDH Increase - Index Value": 0}
{"MOLECULE": "CCOC(=O)C1=C(COCCN)NC(C)=C(C(=O)OC)C1c1ccccc1Cl (stereo not given)", "LDH Increase - Index Value": 0.7}
{"MOLECULE": "CC(C)(O/N=C(\\C(=O)N[C@@H]1C(=O)N2C(C(=O)[O-])=C(C[n+]3ccccc3)CS[C@H]12)c1csc(N)n1)C(=O)O", "LDH Increase - Index Value": 0}
{"MOLECULE": "O=P1(N(CCCl)CCCl)NCCCO1 (stereo not given) [CYCLOPHOSPHAMIDE ANHYDROUS]", "LDH Increase - Index Value": 8.5}
{"MOLECULE": "C[C@]12CC[C@@H]3c4ccc(O)cc4CC[C@H]3[C@@H]1CC[C@@H]2O", "LDH Increase - Index Value": 1.2}
{"MOLECULE": "CC(C)(C#N)c1cc(Cn2cncn2)cc(C(C)(C)C#N)c1", "LDH Increase - Index Value": 6.4}
{"MOLECULE": "CCC(=O)OCC(=O)[C@@]1(OC(=O)CC)[C@H](C)C[C@H]2[C@H]3[C@H]([C@@H](O)C[C@@]21C)[C@@]1(C)C=CC(=O)C=C1C[C@H]3Cl [ALCLOMETASONE DIPROPIONATE]", "LDH Increase - Index Value": 0}
{"MOLECULE": "CCCCC(=O)O[C@H]1CC[C@H]2[C@@H]3CCc4cc(O)ccc4[C@H]3CC[C@]12C [ESTRADIOL VALERATE]", "LDH Increase - Index Value": 1.2}
{"MOLECULE": "COc1cccc2c1C(=O)c1c(O)c3c(c(O)c1C2=O)C[C@@](O)(C(C)=O)C[C@@H]3O[C@H]1C[C@H](N)[C@H](O)[C@H](C)O1", "LDH Increase - Index Value": 0}
{"MOLECULE": "Cc1ccnc2c1NC(=O)c1cccnc1N2C1CC1", "LDH Increase - Index Value": 34.4}
{"MOLECULE": "CC[C@H]1OC(=O)[C@H](C)[C@@H](O[C@H]2C[C@@](C)(OC)[C@@H](O)[C@H](C)O2)[C@H](C)[C@@H](O[C@@H]2O[C@H](C)C[C@H](N(C)C)[C@H]2O)[C@](C)(O)C[C@@H](C)CN(C)[C@H](C)[C@@H](O)[C@]1(C)O", "LDH Increase - Index Value": 0.8}
{"MOLECULE": "Clc1ccc(CO/N=C(\\Cn2ccnc2)c2ccc(Cl)cc2Cl)c(Cl)c1", "LDH Increase - Index Value": 0}
{"MOLECULE": "CO/N=C(/C(=O)N[C@@H]1C(=O)N2C(C(=O)OC(C)OC(=O)C(C)(C)OC)=C(COC(N)=O)CS[C@H]12)c1ccco1 (stereo not given in full)", "LDH Increase - Index Value": 0}
{"MOLECULE": "Cc1nc2n(c(=O)c1CCN1CCC(c3noc4cc(F)ccc34)CC1)CCCC2", "LDH Increase - Index Value": 0.9}
{"MOLECULE": "C[C@]12CC[C@@H]3c4ccc(OC(=O)c5ccccc5)cc4CC[C@H]3[C@@H]1CC[C@@H]2O [ESTRADIOL BENZOATE]", "LDH Increase - Index Value": 1.2}
{"MOLECULE": "CCCC(=O)Nc1ccc(OCC(O)CNC(C)C)c(C(C)=O)c1 (stereo not given)", "LDH Increase - Index Value": 3.3}
{"MOLECULE": "Oc1ccc2c3c1O[C@H]1[C@@H](O)CC[C@@]4(O)[C@@H](C2)N(CC2CCC2)CC[C@]314", "LDH Increase - Index Value": 0}
{"MOLECULE": "c1ccc([C@H]2CN3CCSC3=N2)cc1", "LDH Increase - Index Value": 29.4}
